Each recorded value in this set is attributed to patent US20210403506A1.

Biological target: T1, human Chemokine like receptor 1 (human, UniProt Q99788 1-373)
T1 sequence (looked up): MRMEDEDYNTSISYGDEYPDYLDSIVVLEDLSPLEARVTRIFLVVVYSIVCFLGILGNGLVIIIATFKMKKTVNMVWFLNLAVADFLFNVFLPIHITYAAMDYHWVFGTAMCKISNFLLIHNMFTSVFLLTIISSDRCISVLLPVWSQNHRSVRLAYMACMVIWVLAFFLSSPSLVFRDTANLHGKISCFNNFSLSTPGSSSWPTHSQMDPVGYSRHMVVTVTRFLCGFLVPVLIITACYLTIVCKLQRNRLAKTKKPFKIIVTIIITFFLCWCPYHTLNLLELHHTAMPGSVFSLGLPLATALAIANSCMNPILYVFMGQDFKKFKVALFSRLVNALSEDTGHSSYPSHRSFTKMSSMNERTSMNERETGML
Experiment: cell-based or functional assay
Square brackets hold non-standard residues; d marks the D form. Primed or numbered codes have the meaning given here. Ends that are not written are not given here. * marks the point of attachment. azaTic = 3,4-dihydropyridazine-2(H)-formic acid; PEG8 = NCCOCCOCCOCCOCCOCCOCCOCCOCCC(=O)O; Phe(4-Cl) = N[C@@H](Cc1ccc(Cl)cc1)C(=O)O; Pro(diF)″ = difluoroproline (DiFluorPro); 2Nal = N[C@@H](Cc1ccc2ccccc2c1)C(=O)O; dNMeY = CN[C@H](Cc1ccc(O)cc1)C(=O)O; Palmitoyl = CCCCCCCCCCCCCCCC(=O)*; Tic = O=C(O)[C@@H]1Cc2ccccc2CN1; NMeL = CN[C@@H](CC(C)C)C(=O)O; NMeS = CN[C@@H](CO)C(=O)O; βAla = NCCC(=O)O
PROPERTY NAME: EC50 (µM), activation of Tango CMKLR1-bla U2OS cells

Examples with their reported EC50 (µM), activation of Tango CMKLR1-bla U2OS cells follow.
[dY][Phe(4-Cl)][NMeL]P[dS]QF[dA][Tic]S [YW-203] ... 0.0082 µM
[dY]FLP[dS]Q[dS][dA][azaTic]S-OH [YW-147] ... > 50 µM
[dY]FLP[dS]Q[2Nal][dA][Tic]S-OH (N-terminus assumed; SMILES CC(C)C[C@H](NC(=O)[C@H](Cc1ccccc1)NC(=O)[C@H](N)Cc1ccc(O)cc1)C(=O)N1CCC[C@H]1C(=O)N[C@H](CO)C(=O)N[C@@H](CCC(N)=O)C(=O)N[C@@H](Cc1ccc2ccccc2c1)C(=O)N[C@H](C)C(=O)N1Cc2ccccc2C[C@H]1C(=O)N[C@@H](CO)C(=O)O) [YW-118] ... 0.0069 µM

Request: Request the reported EC50 (µM), activation of Tango CMKLR1-bla U2OS cells associated with [dNMeY]F[NMeL][Pro(diF)″][dS]Q[2Nal][dA][Tic][NMeS]-OH [YW-225]
Response: 0.00064 µM

Request: Quick check: EC50 (µM), activation of Tango CMKLR1-bla U2OS cells of {Palmitoyl-PEG8}-[βAla][βAla][dY]F[NMeL]P[dS]QF[dA][Tic]S-OH (SMILES CCCCCCCCCCCCCCCC(=O)NCCOCCOCCOCCOCCOCCOCCOCCOCCC(=O)NCCC(=O)NCCC(=O)N[C@H](Cc1ccc(O)cc1)C(=O)N[C@@H](Cc1ccccc1)C(=O)N(C)[C@@H](CC(C)C)C(=O)N1CCC[C@H]1C(=O)N[C@H](CO)C(=O)N[C@@H](CCC(N)=O)C(=O)N[C@@H](Cc1ccccc1)C(=O)N[C@H](C)C(=O)N1Cc2ccccc2C[C@H]1C(=O)N[C@@H](CO)C(=O)O) [YW-134] ?
Response: 0.0007 µM

Request: // returns reported EC50 (µM), activation of Tango CMKLR1-bla U2OS cells for input {Palmitoyl-PEG8}-GG[dY]F[NMeL]P[dS]QF[dA][Tic]S-OH (SMILES CCCCCCCCCCCCCCCC(=O)NCCOCCOCCOCCOCCOCCOCCOCCOCCC(=O)NCC(=O)NCC(=O)N[C@H](Cc1ccc(O)cc1)C(=O)N[C@@H](Cc1ccccc1)C(=O)N(C)[C@@H](CC(C)C)C(=O)N1CCC[C@H]1C(=O)N[C@H](CO)C(=O)N[C@@H](CCC(N)=O)C(=O)N[C@@H](Cc1ccccc1)C(=O)N[C@H](C)C(=O)N1Cc2ccccc2C[C@H]1C(=O)N[C@@H](CO)C(=O)O) [YW-133]
Response: 0.0007 µM
